Where do the numbers come from? From ChEMBL document CHEMBL1130092.

- assayedTarget: Integrin alpha-IIb/beta-3 (Homo sapiens, UniProt P05106+P08514)
- Sequence (P05106 27-788 limits assumed): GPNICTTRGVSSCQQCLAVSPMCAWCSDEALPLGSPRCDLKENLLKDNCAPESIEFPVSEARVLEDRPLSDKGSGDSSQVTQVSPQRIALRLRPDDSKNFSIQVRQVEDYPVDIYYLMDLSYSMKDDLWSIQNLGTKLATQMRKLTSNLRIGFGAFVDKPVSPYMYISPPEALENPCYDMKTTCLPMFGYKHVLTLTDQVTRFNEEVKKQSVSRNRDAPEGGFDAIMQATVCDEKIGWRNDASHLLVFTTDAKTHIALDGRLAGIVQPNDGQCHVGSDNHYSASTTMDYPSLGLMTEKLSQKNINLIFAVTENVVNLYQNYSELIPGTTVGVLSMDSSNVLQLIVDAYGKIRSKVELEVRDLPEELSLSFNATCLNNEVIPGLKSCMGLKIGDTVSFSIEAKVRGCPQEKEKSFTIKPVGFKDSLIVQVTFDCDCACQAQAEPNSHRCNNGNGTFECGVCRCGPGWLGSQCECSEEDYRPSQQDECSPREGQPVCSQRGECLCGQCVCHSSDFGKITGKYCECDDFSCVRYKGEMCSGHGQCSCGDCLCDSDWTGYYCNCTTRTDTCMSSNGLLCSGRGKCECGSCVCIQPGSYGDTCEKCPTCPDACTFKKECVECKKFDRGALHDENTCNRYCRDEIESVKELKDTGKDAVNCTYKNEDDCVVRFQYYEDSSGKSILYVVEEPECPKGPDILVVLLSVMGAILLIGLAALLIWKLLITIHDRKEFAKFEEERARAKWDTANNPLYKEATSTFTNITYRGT
- Sequence (P08514 32-887 limits assumed): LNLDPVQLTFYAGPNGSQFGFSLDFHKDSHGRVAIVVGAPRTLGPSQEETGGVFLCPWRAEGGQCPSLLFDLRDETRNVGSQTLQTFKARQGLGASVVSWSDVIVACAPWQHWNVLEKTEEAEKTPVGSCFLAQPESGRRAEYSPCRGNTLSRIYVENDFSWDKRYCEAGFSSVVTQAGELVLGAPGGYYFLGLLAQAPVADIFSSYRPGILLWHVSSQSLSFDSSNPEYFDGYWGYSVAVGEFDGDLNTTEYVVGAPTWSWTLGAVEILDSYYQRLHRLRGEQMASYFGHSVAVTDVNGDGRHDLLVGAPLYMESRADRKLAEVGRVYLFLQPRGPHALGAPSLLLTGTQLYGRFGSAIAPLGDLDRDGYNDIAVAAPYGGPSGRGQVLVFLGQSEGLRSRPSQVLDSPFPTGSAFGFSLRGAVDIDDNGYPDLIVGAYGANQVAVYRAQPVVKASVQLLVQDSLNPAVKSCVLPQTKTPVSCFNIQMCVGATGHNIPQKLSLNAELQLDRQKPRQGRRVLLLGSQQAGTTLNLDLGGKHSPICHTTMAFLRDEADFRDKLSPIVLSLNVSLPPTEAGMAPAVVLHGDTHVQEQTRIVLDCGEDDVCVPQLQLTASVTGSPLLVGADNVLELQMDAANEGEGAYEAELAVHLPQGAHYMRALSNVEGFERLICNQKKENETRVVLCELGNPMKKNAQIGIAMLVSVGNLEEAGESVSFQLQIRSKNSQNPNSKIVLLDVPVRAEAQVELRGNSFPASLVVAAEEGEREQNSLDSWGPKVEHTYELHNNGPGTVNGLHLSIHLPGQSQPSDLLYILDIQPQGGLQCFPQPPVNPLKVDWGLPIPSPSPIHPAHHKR
- Sequence (P08514 891-1039 limits assumed): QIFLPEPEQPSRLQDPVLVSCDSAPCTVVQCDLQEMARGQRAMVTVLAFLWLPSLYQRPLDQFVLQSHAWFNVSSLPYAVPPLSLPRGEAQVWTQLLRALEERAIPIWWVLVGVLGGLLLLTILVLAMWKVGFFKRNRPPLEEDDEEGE
- assayProcedure: Affinity for platelet fibrinogen receptor, integrin alpha IIb/beta3
Bridge positions count the residues as written; N and C are the ends. Peptide text beside a SMILES is read from it.
assayReadout: Ki (µM)

Example entries begin here.
[
  {
    "molecule": "CN1Cc2cc(C(=O)N3CCN(c4ccncc4)CC3)ccc2NC(CC(=O)O)C1=O (centres undefined)",
    "Ki (µM)": 0.008
  },
  {
    "molecule": "CN1Cc2cc(C(=O)NCc3nc4ccccc4[nH]3)ccc2N[C@@H](CC(=O)O)C1=O",
    "Ki (µM)": 52
  },
  {
    "molecule": "CN1Cc2cc(C(=O)NCc3nc4ccccc4[nH]3)ccc2NC(CC(=O)O)C1=O (centres undefined)",
    "Ki (µM)": 30
  }
]

P. N=C(N)c1cccc(NC(=O)c2ccc3c(c2)CN(CCc2ccccc2)C(=O)C(CC(=O)O)N3)c1 (centres undefined)
Q. CC(=O)C[C@@H]1NC(=O)[C@@H](Cc2ccccc2)NC(=O)[C@H](C(C)C)NC(=O)[C@H](CCCN=C(N)N)NC(=O)CNC1=O
R. N/C1=N/CCC[C@H](N)C(=O)NCC(=O)N[C@@H](CC(=O)O)C(=O)N[C@@H](CO)C(=O)N[C@@H](Cc2ccccc2)C(=O)NCC(=O)N1 (H-RGDSFG; lactam 1-C)
# rank by Ki, ascending (min first) // rank by listing labels in the order requested P, Q, R
(P: 4.5 µM, Q: 42 µM, R: 75 µM)
